target: (NANP)6 (Plasmodium falciparum); assay: BLI, target on sensor
attribute_measured: Kd (nM)
Give a bare numeral; the unit nM is implied.

Recorded Kd, per entry:
{"binder": "AB-007062 (antibody, V domains shown) VH: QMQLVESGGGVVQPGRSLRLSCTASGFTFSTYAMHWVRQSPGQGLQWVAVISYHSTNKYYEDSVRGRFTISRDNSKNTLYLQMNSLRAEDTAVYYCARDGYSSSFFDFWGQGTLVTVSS VL: DIQMTQSPSTLSASVGDRVAITCRASQSISSWLAWYQQQPGKAPKLLMSGASVLESGVPSRFSGSGSGTEFTLTISSLQPDDFATYYCQHYNSYFVTFGQGTKVEIK", "reported_measurement": 0.607}
{"binder": "AB-007054 (antibody, V domains shown) VH: QMQLVESGGGVVQPGRSLRLSCTASGFTFSTYAMHWVRQSPGQGLQWVAVISYHSTNKYYEDSVRGRFTISRDNSKNTLYLQMNSLRAEDTAVYYCARDGYASSFFDFWGQGTLVTVSS VL: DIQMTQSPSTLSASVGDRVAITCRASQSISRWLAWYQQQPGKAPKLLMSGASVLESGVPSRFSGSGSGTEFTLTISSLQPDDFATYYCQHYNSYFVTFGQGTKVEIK", "reported_measurement": 1.72}

Query binder follows.
In plain terms, AB-007072 (antibody, V domains shown) VH: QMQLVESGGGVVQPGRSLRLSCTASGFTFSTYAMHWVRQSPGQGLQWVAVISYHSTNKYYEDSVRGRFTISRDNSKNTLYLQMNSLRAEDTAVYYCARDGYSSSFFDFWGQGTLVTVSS VL: DIQMTQSPSTLSASVGDRVAITCRASQSISRWLAWYQQQPGKAPKLLMSGASNLESGVPSRFSGSGSGTEFTLTISSLQPDDFATYYCQHYNSYFVTFGQGTKVEIK has a documented Kd of 1.65

Cited source for all entries: patent US20220195023A1
